Value source: patent US6727275B2

- target or test system: CCR2 (Homo sapiens)
- assay explanation: Binding assay: inhibition of 125I-MCP-1 binding to THP-1 cells
- Parameters: CCR2 is also expressed in the human monocytic cell line THP-1; endogenous in cells; host or cells: THP-1 (human monocytic cell line), whole cells
measurement label: IC50

Give recorded IC50 with CCR2 (Homo sapiens) for the following compound: CCCC(CCC)C1C(C(C)=O)=C(O)C(=O)N1c1ccc(C)cc1 (racemic) [Compound 39] ≤ 5 µM

* * *

- target or test system: CCR2 (Homo sapiens)
- Sequence (P41597 1-360 isoform P41597-2): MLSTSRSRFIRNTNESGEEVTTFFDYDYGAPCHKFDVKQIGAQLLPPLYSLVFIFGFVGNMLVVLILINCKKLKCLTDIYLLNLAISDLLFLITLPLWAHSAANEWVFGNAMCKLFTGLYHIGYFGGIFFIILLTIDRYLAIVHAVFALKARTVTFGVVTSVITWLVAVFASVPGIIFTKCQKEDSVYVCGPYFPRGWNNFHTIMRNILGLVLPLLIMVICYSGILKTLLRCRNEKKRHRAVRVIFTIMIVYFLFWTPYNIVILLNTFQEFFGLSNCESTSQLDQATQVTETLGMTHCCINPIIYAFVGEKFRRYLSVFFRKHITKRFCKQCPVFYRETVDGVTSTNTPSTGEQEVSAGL
- assay explanation: Binding assay: inhibition of 125I-MCP-1 binding to THP-1 cells
- Set-up: CCR2 is also expressed in the human monocytic cell line THP-1; endogenous in cells; host or cells: THP-1 (human monocytic cell line), whole cells
- conditions: THP-1 cells, 0.1 nM 125I-MCP-1, 1 hr at room temperature; read-out: Inhibition of 125I-MCP-1 binding to THP-1 cells, IC50
measurement label: IC50

Consider the compound shown here: CC(=O)C1=C(O)C(=O)N(c2ccc(C)c(C)c2)C1CC(C)(C)C (racemic) What is its recorded IC50? ≤ 5 µM
